test summary: Rat pharmacokinetics
measurement parameters: male, Sprague Dawley, in vivo, po, 30 mg/kg
From the text: To investigate the pharmacokinetic profiles of test compound following intravenous bolus administration and oral gavage in male Sprague Dawley rats.
measure: Cmax (ng/mL)
// note: answer is a bare numeric in ng/mL

In: For the molecule `Cc1n[nH]c2ncc(-c3cncc(NC4CCN(C)CC4)n3)cc12` , give its measured Cmax value.
Out: 133

====

pIC50: −log10 of the molar value.
Below are pIC50 values recorded for UniProt:Q5S007.

In: For the compound `CN(C)CCNc1cncc(-c2cnc3[nH]ccc3c2)n1` , give its measured pIC50 value.
Out: < 6.30

In: For the compound `Cc1n[nH]c2ncc(-c3cncc(N4CCc5ccccc54)n3)cc12` , give its measured pIC50 value.
Out: > 6.30

In: For the compound `Cc1n[nH]c2ncc(-c3cncc(NCCN(C)C)n3)cc12` , give its measured pIC50 value.
Out: > 6.30

In: For the compound `Cc1n[nH]c2ncc(-c3cncnc3NC3CCN(C)CC3)cc12` , give its measured pIC50 value.
Out: < 6.30

In: For the compound Cc1n[nH]c2ncc(-c3cncc(NC4CCN(C)C4)n3)cc12 (stereo not drawn) , give its measured pIC50 value.
Out: < 6.30

In: For the compound `CN(CC1CCOCC1)c1cncc(-c2cnc3[nH]ccc3c2)n1` , give its measured pIC50 value.
Out: > 6.30

In: For the compound `CN(CC1CCOCC1)c1cncc(-c2cnc3[nH]cc(Cl)c3c2)n1` , give its measured pIC50 value.
Out: > 6.30

In: For the compound `O=C1CN(c2cncc(-c3cnc4[nH]ccc4c3)n2)CCN1` , give its measured pIC50 value.
Out: < 6.30

In: For the compound `Cc1n[nH]c2ncc(-c3cncc(N4CCNC(=O)C4)n3)cc12` , give its measured pIC50 value.
Out: < 6.30

====

test summary: in vivo
measurement parameters: male, Sprague Dawley, rat, iv, 5 mg/kg
Assign AUC(0-t) to each entry below.
A complete answer gives the number followed by the unit.

In: For the compound Cc1n[nH]c2ncc(-c3cncc(NC4CCN(C)CC4)n3)cc12.Cl [13 HCl] , give its measured AUC(0-t) value.
Out: 1020 ng·h/mL

In: For the compound c1ccc2c(c1)CCN2c1cncc(-c2cnc3[nH]ccc3c2)n1 [Compound 134] , give its measured AUC(0-t) value.
Out: 1020 ng·h/mL

In: For the compound c1cc2cc(-c3cncc(N4CCOCC4)n3)cnc2[nH]1 [Compound 148] , give its measured AUC(0-t) value.
Out: 1020 ng·h/mL

In: For the compound Cc1n[nH]c2ncc(-c3cncc(N4CCOCC4)n3)cc12 [Compound 105] , give its measured AUC(0-t) value.
Out: 1020 ng·h/mL

In: For the compound Cc1n[nH]c2ncc(-c3cncc(N(C)CC4CCOCC4)n3)cc12 [Compound 71] , give its measured AUC(0-t) value.
Out: 1020 ng·h/mL

====

tested system: LRRK2 G2019S (Homo sapiens (Human), UniProt Q5S007, G2019S)
Sequence (Q5S007 970-2527 G2019S): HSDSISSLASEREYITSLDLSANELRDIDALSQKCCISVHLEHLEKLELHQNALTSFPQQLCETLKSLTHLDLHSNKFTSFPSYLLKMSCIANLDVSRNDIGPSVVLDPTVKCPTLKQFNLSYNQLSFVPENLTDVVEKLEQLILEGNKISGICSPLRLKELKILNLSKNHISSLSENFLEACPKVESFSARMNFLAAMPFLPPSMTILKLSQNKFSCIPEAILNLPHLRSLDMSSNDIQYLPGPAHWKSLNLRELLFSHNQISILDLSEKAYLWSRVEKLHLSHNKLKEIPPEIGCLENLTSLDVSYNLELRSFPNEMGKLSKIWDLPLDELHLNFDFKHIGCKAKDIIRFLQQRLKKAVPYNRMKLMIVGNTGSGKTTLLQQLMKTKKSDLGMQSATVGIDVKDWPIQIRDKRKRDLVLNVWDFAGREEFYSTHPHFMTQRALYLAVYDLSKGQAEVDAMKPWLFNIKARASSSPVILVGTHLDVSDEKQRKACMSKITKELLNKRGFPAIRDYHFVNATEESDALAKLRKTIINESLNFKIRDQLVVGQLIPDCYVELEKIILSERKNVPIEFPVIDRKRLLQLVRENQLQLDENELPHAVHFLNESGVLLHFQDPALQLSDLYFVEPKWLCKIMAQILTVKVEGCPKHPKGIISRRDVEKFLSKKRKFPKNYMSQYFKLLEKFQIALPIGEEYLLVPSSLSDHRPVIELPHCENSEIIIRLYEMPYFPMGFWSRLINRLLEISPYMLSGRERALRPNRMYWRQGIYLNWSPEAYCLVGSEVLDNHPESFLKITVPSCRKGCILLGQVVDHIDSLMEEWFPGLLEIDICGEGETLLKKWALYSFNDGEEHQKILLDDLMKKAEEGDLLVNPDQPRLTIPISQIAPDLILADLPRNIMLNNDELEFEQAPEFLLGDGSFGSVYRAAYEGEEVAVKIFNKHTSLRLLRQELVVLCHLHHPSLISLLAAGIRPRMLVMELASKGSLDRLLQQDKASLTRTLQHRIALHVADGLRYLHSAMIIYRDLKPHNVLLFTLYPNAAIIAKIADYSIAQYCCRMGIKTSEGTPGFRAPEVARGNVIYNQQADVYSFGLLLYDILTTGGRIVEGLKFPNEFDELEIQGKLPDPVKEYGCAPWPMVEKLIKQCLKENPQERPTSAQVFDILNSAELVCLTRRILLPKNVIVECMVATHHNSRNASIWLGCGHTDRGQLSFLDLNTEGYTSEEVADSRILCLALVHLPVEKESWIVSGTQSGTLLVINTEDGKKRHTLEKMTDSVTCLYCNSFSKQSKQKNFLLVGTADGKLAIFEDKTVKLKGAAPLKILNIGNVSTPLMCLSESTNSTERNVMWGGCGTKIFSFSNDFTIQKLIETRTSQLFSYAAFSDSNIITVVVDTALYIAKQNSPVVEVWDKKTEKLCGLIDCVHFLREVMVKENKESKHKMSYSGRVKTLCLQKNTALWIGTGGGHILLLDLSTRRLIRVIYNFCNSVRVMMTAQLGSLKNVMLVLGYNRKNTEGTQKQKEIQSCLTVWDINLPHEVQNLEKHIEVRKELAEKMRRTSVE
test summary: LRRK2 G2019S Kinase Assay
measurement parameters: 10 μM ATP
pIC50: −log10 of the molar value.
measure: pIC50

In: For the compound `Cc1n[nH]c2ncc(-c3nccnc3N3CCCC3)cc12` , give its measured pIC50 value.
Out: < 6.00

In: For the compound `Cc1n[nH]c2ncc(-c3cncc(NC4CCN(C)CC4)n3)cc12` , give its measured pIC50 value.
Out: > 6.30

In: For the compound `CCOC(=O)c1cccc(-c2cnc3[nH]nc(C)c3c2)c1` , give its measured pIC50 value.
Out: < 6.00

In: For the compound `CN1CCC(Nc2cncc(-c3cnc4[nH]cc(Cl)c4c3)n2)CC1` , give its measured pIC50 value.
Out: > 6.30

In: For the compound `c1cc2cc(-c3cncc(N4CCOCC4)n3)cnc2[nH]1` , give its measured pIC50 value.
Out: > 6.30

In: For the compound `Cc1n[nH]c2ncc(-c3cncc(N(C)CC4CCOCC4)n3)cc12` , give its measured pIC50 value.
Out: > 6.30

In: For the compound `Clc1c[nH]c2ncc(-c3cncc(N4CCOCC4)n3)cc12` , give its measured pIC50 value.
Out: > 6.30

In: For the compound `CN1CCN(Cc2cccc(-c3cnc4[nH]ccc4c3)c2)CC1` , give its measured pIC50 value.
Out: > 6.30

In: For the compound `CN1CCN(c2cncc(-c3cnc4[nH]ccc4c3)n2)CC1` , give its measured pIC50 value.
Out: > 6.30

====

test summary: Rat pharmacokinetics
measurement parameters: male, Sprague Dawley, in vivo, iv, 5 mg/kg
measure: AUC(0-t) (ng·h/mL)
// note: answer is a bare numeric in ng·h/mL

In: For the compound `Cc1n[nH]c2ncc(-c3cncc(NC4CCN(C)CC4)n3)cc12` , give its measured AUC(0-t) value.
Out: 1020

====

tested system: LRRK2 G2019S (Homo sapiens (Human), UniProt Q5S007, G2019S)
test summary: LRRK2 G2019S Kinase Assay
measurement parameters: 10 μM ATP
measure: IC50

In: For the molecule `O=C(c1cncc(-c2cnc3[nH]ccc3c2)n1)N1CCCCC1` , give its measured IC50 value.
Out: > 500 nM

In: For the molecule `O=C1CCCN1c1cncc(-c2cnc3[nH]ccc3c2)n1` , give its measured IC50 value.
Out: > 500 nM

In: For the molecule `Cc1n[nH]c2ncc(Nc3ccc(CN4CCN(C)CC4)cc3)cc12` , give its measured IC50 value.
Out: > 1000 nM

In: For the molecule `Cc1n[nH]c2ncc(-c3cncc(Cl)n3)cc12` , give its measured IC50 value.
Out: > 1000 nM

In: For the molecule `CN1CCN(C(=O)c2cncc(-c3cnc4[nH]ccc4c3)n2)CC1` , give its measured IC50 value.
Out: > 1000 nM

In: For the molecule Cc1n[nH]c2ncc(NC3CCCN(Cc4ccc(F)cc4)C3)cc12 (stereo not drawn) , give its measured IC50 value.
Out: > 500 nM

In: For the molecule `Cc1n[nH]c2ncc(-c3cncc(N4CCc5ccccc54)n3)cc12` , give its measured IC50 value.
Out: < 500 nM

In: For the molecule `Cc1n[nH]c2ncc(-c3cccc(CN4CCN(C)CC4)c3)cc12` , give its measured IC50 value.
Out: > 1000 nM

In: For the molecule `OCCN1CCN(c2cncc(-c3cnc4[nH]ccc4c3)n2)CC1` , give its measured IC50 value.
Out: < 500 nM

====

Below are IC50 values recorded for LRRK2 (Homo sapiens (Human)).

In: For the molecule Cc1n[nH]c2ncc(NC3CCCN(Cc4ccc(F)c(F)c4)C3)cc12 (stereo not drawn) [Compound 26] , give its measured IC50 value.
Out: > 0.5 µM

In: For the molecule Cc1n[nH]c2ncc(-c3cccc(S(=O)(=O)N(C)C)c3)cc12 [Compound 111] , give its measured IC50 value.
Out: > 1 µM

In: For the molecule C=CC(=O)Nc1cccc(-c2cnc3[nH]nc(C)c3c2)c1 [Compound 155] , give its measured IC50 value.
Out: > 1 µM

In: For the molecule OC1CCN(c2cncc(-c3cnc4[nH]ccc4c3)n2)CC1 [Compound 137] , give its measured IC50 value.
Out: < 0.5 µM

In: For the molecule CC(=O)Nc1cccc(-c2cnc3[nH]nc(C)c3c2)c1 [Compound 114] , give its measured IC50 value.
Out: > 1 µM

In: For the molecule Cc1n[nH]c2ncc(-c3cncc(N4CCN(CCO)CC4)n3)cc12 [Compound 59] , give its measured IC50 value.
Out: < 0.5 µM

In: For the molecule c1ccc2c(c1)CCN2c1cncc(-c2cnc3[nH]ccc3c2)n1 [Compound 134] , give its measured IC50 value.
Out: < 0.5 µM

In: For the molecule Cc1n[nH]c2ncc(-c3cccc(NC4CCN(C)CC4)c3)cc12 [Compound 98] , give its measured IC50 value.
Out: > 1 µM

In: For the molecule Cn1cc(-c2cnc3[nH]ncc3c2)cn1 [Compound 117] , give its measured IC50 value.
Out: > 1 µM

====

tested system: LRRK2 G2019S (Homo sapiens (Human), UniProt Q5S007, G2019S)
test summary: LRRK2 G2019S Kinase Assay
measurement parameters: 10 μM ATP
measure: IC50

In: For the compound `OC1CCN(c2cncc(-c3cnc4[nH]ccc4c3)n2)CC1` , give its measured IC50 value.
Out: < 500 nM

In: For the compound `Cc1n[nH]c2ncc(-c3cncc(N4CCOCC4)n3)cc12` , give its measured IC50 value.
Out: < 500 nM

In: For the compound `Cc1n[nH]c2ncc(-c3cncc(N4CCN(C)CC4)n3)cc12` , give its measured IC50 value.
Out: < 500 nM

In: For the compound `Cc1n[nH]c2ncc(-c3cccc(NC4CCN(C)CC4)c3)cc12` , give its measured IC50 value.
Out: > 1000 nM

In: For the compound `CN(CC1CCOCC1)c1cncc(-c2cnc3[nH]cc(Cl)c3c2)n1` , give its measured IC50 value.
Out: < 500 nM

In: For the compound Cc1n[nH]c2ncc(-c3cncc(NC4CCN(C)C4)n3)cc12 (centres unmarked) , give its measured IC50 value.
Out: > 500 nM

In: For the compound `CN(CC1CCOCC1)c1cncc(-c2cnc3[nH]ccc3c2)n1` , give its measured IC50 value.
Out: < 500 nM

In: For the compound `Cc1n[nH]c2ncc(Nc3cncc(Cl)n3)cc12` , give its measured IC50 value.
Out: > 1000 nM

In: For the compound `Cc1n[nH]c2ncc(Nc3cccc(CN4CCN(CCO)CC4)c3)cc12` , give its measured IC50 value.
Out: > 1000 nM

In: For the compound `Cc1n[nH]c2ncc(-c3cccc(NC4CCN(C)CC4)n3)cc12` , give its measured IC50 value.
Out: > 500 nM

In: For the compound `CC(=O)Nc1cccc(-c2cnc3[nH]nc(C)c3c2)c1` , give its measured IC50 value.
Out: > 1000 nM

In: For the compound `c1ccc2c(c1)CCN2c1cncc(-c2cnc3[nH]ccc3c2)n1` , give its measured IC50 value.
Out: < 500 nM

In: For the compound Cc1n[nH]c2ncc(NC3CCCN(Cc4ccc(Cl)c(Cl)c4)C3)cc12 (centres unmarked) , give its measured IC50 value.
Out: > 500 nM

In: For the compound `c1cnc(N2CCCC2)c(-c2cnc3[nH]ccc3c2)n1` , give its measured IC50 value.
Out: > 500 nM

Values from patent US9669028B2
